tested on: Pseudomonas aeruginosa strain H1001 fliC::luxCDABE; assay: Luminescence-based assay for the non-cleaved (bound) peptides on cellulose membranes; format: cell-based; settings: cellulose-bound peptide, 0 min
Ends that are not written are not given here.
OBSERVATION_TYPE: Luminescence at the given time in minutes: 0 (RLU)

In [3]: df
Out[3]:
                                   substance  value_reported
 0                     RRRVIVAVLARI [Bac046]            4408
 1                     LAIVRRARVRIV [Bac031]            4646
 2                     ILVIVRRRARAV [Bac042]            5171
 3                     ARAILIRVVRRV [Bac025]            4354
 4                     RAIIRRVLVRVA [Bac024]            4164
 5                     IIRAALRRVRVV [Bac009]            3935
 6  VRIRARRVILVA-NH2 (C-terminus assumed) [Bac006]            3878
 7                     IVRVAVALRRIR [Bac005]            3853
 8                     IILAVRAVRRVR [Bac029]            4538
 9                     RRVAIVVIARLR [Bac018]            4966
10                     AVRVRRRAILVI [Bac011]            4516
11                     RIVLRRAAVIRV [Bac039]            4727
12                     RRLVAIVAVRRI [Bac007]            3943
13                     RVLIARVVRAIR [Bac027]            4437
14                     RLRVAIVAIVRR [Bac041]            4620

Data provenance is patent US20080207522A1.
